Data origin, for the record: ChEMBL document CHEMBL5625210

tested-system: Human immunodeficiency virus type 1 reverse transcriptase (Human immunodeficiency virus 1)
pIC50: −log10 of the molar value.
Cut-off 6 on pIC50, inclusive. At or above means T; below means F.

Study these solved cases before continuing.
> print(dat)
                                 smiles.str                             tested.system  label
1  Cc1cc(C#N)cc(C)c1Oc1nc(Nc2ccc(C#N)cc2)c(C#N)cc1F  Human immunodeficiency virus type 1 reverse transcriptase (Human immunodeficiency virus 1)      T
2  Cc1cc(C#N)cc(C)c1Oc1ccc(C#N)c(Nc2ccc(CN3CCN(S(=O)(=O)N(C)C)CC3)cc2)n1  Human immunodeficiency virus type 1 reverse transcriptase (Human immunodeficiency virus 1)      F
3  Cc1cc(C#N)cc(C)c1Oc1ccc(C#N)c(Nc2ccc(CN3CCN(S(C)(=O)=O)CC3)cc2)n1  Human immunodeficiency virus type 1 reverse transcriptase (Human immunodeficiency virus 1)      T

Please tell me: is the compound "Cc1cc(C#N)cc(C)c1Oc1nc(Nc2ccc(CN3CCN(S(C)(=O)=O)CC3)cc2)c(C#N)cc1Cl" at or over 6 in terms of pIC50? T

Please tell me: is the compound "Cc1cc(C#N)cc(C)c1Oc1nc(NC2CCN(Cc3ccc(S(N)(=O)=O)cc3)CC2)c(C#N)cc1Cl" at or over 6 in terms of pIC50? T

====

Tested on: Human immunodeficiency virus 1
assay-explanation: Antiviral activity against HIV-1 Y188L mutant infected in human MT4 cells assessed as protection against virus-induced cytopathic effect incubated for 5 days by MTT assay
Assay type: functional, organism-based
condition-details: Human immunodeficiency virus 1, MT4, 120 h
pEC50: −log10 of the molar value.
Cut-off 6 on pEC50, inclusive. At or above means yes; below means no.

> print(dat)
                                   compound  label
1  Cc1cc(C#N)cc(C)c1Oc1nc(NC2CCN(Cc3ccc(S(C)(=O)=O)cc3)CC2)c(C#N)cc1F    yes
2  Cc1cc(C#N)cc(C)c1Oc1ccc(C#N)c(NC2CCN(Cc3ccc(C(N)=O)cc3)CC2)n1    yes

Please tell me: is the compound "Cc1cc(C#N)cc(C)c1Oc1ccc(C#N)c(NC2CCN(Cc3ccc(S(C)(=O)=O)cc3)CC2)n1" at or over 6 in terms of pEC50? yes

Please tell me: is the compound "Cc1cc(C#N)cc(C)c1Oc1nc(Nc2ccc(C#N)cc2)c(C#N)cc1F" at or over 6 in terms of pEC50? no

Please tell me: is the compound "Cc1cn([C@@H]2C[C@@H](N=[N+]=[N-])[C@H](CO)O2)c(=O)[nH]c1=O" at or over 6 in terms of pEC50? yes

Please tell me: is the compound "Cc1cc(C#N)cc(C)c1Oc1ccc(C#N)c(NC2CCN(Cc3ccc(S(N)(=O)=O)cc3)CC2)n1" at or over 6 in terms of pEC50? yes

Please tell me: is the compound Cc1cc(C#N)cc(C)c1Oc1nc(Nc2ccc(C#N)cc2)nc(N)c1Br [ETRAVIRINE] at or over 6 in terms of pEC50? yes

Please tell me: is the compound "Cc1cc(C#N)cc(C)c1Oc1nc(Nc2ccc(C#N)c(C#N)c2)c(C#N)cc1Cl" at or over 6 in terms of pEC50? no

Please tell me: is the compound O=C1Nc2ccc(Cl)cc2[C@@](C#CC2CC2)(C(F)(F)F)O1 [EFAVIRENZ] at or over 6 in terms of pEC50? yes

Please tell me: is the compound "Cc1cc(C#N)cc(C)c1Oc1nc(NC2CCN(Cc3ccc(C(N)=O)cc3)CC2)c(C#N)cc1Cl" at or over 6 in terms of pEC50? yes

Please tell me: is the compound "Cc1cc(C#N)cc(C)c1Oc1nc(NC2CCN(Cc3ccc(C(N)=O)cc3)CC2)c(C#N)cc1F" at or over 6 in terms of pEC50? yes

Please tell me: is the compound "Cc1cc(C#N)cc(C)c1Oc1nc(NC2CCN(Cc3ccc(S(N)(=O)=O)cc3)CC2)c(C#N)cc1F" at or over 6 in terms of pEC50? yes

Please tell me: is the compound "Cc1cc(C#N)cc(C)c1Oc1ccc(C#N)c(Nc2ccc(C#N)cc2)n1" at or over 6 in terms of pEC50? no

Please tell me: is the compound Cc1ccnc2c1NC(=O)c1cccnc1N2C1CC1 [NEVIRAPINE] at or over 6 in terms of pEC50? no

Please tell me: is the compound "Cc1cc(C#N)cc(C)c1Oc1nc(Nc2ccc(CN3CCN(S(C)(=O)=O)CC3)cc2)c(C#N)cc1Cl" at or over 6 in terms of pEC50? no

Please tell me: is the compound "Cc1cc(C#N)cc(C)c1Oc1nc(Nc2ccc(C#N)c(F)c2)c(C#N)cc1F" at or over 6 in terms of pEC50? no
